Reference source for all entries: patent US9526680B2

TARGET_OF_ASSAY: OR51E1 (Homo sapiens, UniProt Q8TCB6)
Construct: expressed in transfected cells; host or cells: HEK293
Sequence (Q8TCB6 1-318): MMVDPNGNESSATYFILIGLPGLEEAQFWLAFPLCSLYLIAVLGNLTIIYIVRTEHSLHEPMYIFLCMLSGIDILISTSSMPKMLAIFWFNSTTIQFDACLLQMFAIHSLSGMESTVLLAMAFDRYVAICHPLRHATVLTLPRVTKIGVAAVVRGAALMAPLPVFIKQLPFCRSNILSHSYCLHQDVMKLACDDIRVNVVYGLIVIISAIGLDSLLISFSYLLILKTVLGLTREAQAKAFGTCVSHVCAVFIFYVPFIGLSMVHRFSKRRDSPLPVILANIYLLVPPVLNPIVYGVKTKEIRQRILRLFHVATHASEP
RUN_DESCRIPTION: Luciferase reporter gene assay, OR51E1 expressed in HEK293 cells
Assay type: cell-based
MEASUREMENT_CONDITIONS: response to hexanoic acid; test substance added together with hexanoic acid; HEK293
Description: Cloning of human olfactory receptors was performed based on the sequence information registered in GenBank, through PCR with human genomic DNA female (G1521: Promega) as a template. […] The inhibition ratios of the receptor response to test substances were calculated as follows. […] By the following calculation formula, the inhibitory activity of the test substance to receptor response was calculated based on the increment of the emission value (X−Y) caused by stimulation of hexanoic acid alone. […]
Give Inhibition ratio of OR51E1 response for every item shown.

A selection of reference data follows.
MOLECULE: CC(CC=O)CCCC(C)(C)O (stereo not drawn) [Hydroxycitronellal, 3,7-dimethyl-7-hydroxyoctanal]
Inhibition ratio of OR51E1 response: 2 (Inhibition ratio: 20% to 50%)
--
MOLECULE: CC(C)c1cccc(C(C)CC=O)c1 (stereo not drawn) [Florhydral, 3-(3-isopropylphenyl)-butyraldehyde]
Inhibition ratio of OR51E1 response: 1 (Inhibition ratio: 50% or higher)

Provide Inhibition ratio of OR51E1 response values for the following items, in order.
1. CC(C)=CCCC(C)CC=O (stereo not drawn) [Citronellal, 3,7-dimethyl-6-octenal]
2. CC(C=O)C1CCCCC1 (stereo not drawn) [Pollenal II, 2-cyclohexylpropanal]

[A]
["2 (Inhibition ratio: 20% to 50%)", "2 (Inhibition ratio: 20% to 50%)"]

Provide Inhibition ratio of OR51E1 response values for the following items, in order.
1. CC(C)(C)c1ccc(CCC=O)cc1 [Bourgeonal, 3-(4-tert-butylphenyl)propanal]
2. COC(C)(C)CCCC(C)CC=O (stereo not drawn) [Methoxycitronellal, 7-methoxy-3,7-dimethyloctanal]

[A]
1 (Inhibition ratio: 50% or higher)
1 (Inhibition ratio: 50% or higher)
